Known IC50 of IL-8 secretion, HaCaT, 10 nM human IL-36γ, FIG. 1F of a selection of binders
SYSTEM: T1, human IL-36γ, truncated (human, UniProt Q9NZH8 18-169)
T1 sequence: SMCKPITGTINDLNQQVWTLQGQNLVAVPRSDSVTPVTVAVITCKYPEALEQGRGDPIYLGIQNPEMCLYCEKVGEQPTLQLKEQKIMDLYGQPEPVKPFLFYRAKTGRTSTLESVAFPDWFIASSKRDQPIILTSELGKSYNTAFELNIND
EXPERIMENT_DESCRIPTION: cell-based or functional assay
In your response, put the unit directly after the numeric value.

Field: example entries. Status: answers known.
144L124B (antibody, V domains shown, Mouse monoclonal from hybridoma; mouse IgG heavy and lambda light chain; Same VH and VL as 144L180A) VH: EVQLQQSGAELVKPGASVKLSCTASGFNIKDTYIYWVKQRPEQGLEWIGRIDPANGYTRYDPKFQGKATMTADTSSNTAYLQLSSLTSEDTAVYYCARYEYYDSSFYFDYWGQGTTLTVSS VL: QAVVTQESALTTSPGETVTLTCRSSTGAVTTSNYANWVQEKPDHLFTGLIGGTNNRAPGVPARFSGSLIGDKAALTITGAQTEDEAIYFCALWYSNHLVFGGGTKLTVL | 15.8 nM
144L472A (antibody, V domains shown, Mouse monoclonal from hybridoma; mouse IgG heavy and lambda light chain) VH: EVQLQQSGAELVKPGASVKLSCTVSGFNIKDTYMYWVKQRPEQGLEWIGRIDPANGYAKYDPKFQGKATLTADTSSNTAYLQLSSLTSEDTAVYFCARFHWYDSAFYFDFWGQGTTLTVSS VL: QAVVTQESALTTSPGETVTLTCRSSSGAVTTSNYANWVQEKPDHLFTGLIGGTNNRAPGVPARFSGSLIGDKAALTITGAQTEDEAIYFCGLWYSNHWVFGGGTKLTVL | 11.9 nM

Request: Supply reported IC50 of IL-8 secretion, HaCaT, 10 nM human IL-36γ, FIG. 1F belonging to this binder: 144L180A (antibody, V domains shown) VH: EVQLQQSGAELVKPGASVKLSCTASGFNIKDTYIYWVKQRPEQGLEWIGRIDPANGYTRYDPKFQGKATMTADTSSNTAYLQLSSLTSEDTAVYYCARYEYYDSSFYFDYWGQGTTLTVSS VL: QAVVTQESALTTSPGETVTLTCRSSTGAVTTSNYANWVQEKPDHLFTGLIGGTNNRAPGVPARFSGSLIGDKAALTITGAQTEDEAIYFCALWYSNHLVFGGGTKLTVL
Response: 21.3 nM

Request: Determine from records and report IC50 of IL-8 secretion, HaCaT, 10 nM human IL-36γ, FIG. 1F for 144L249B (antibody, V domains shown, Mouse monoclonal from hybridoma; mouse IgG heavy and lambda light chain; also called mouse antibody 144L249B) VH: EVQLQQSGAELVKPGASVKLSCTASGFNIKDTYIYWVKQRPEQGLEWIGRIDPAIGTTRYDPKFQGKATLTADTSSNTAFLQLSSLTSEDTAVYYCARYDYSGSSFYFDYWGRGTTLTVSS VL: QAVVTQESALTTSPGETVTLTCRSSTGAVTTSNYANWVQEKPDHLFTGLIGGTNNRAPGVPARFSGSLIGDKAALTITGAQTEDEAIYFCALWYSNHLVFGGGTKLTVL
Response: 9.81 nM

Request: # return recorded IC50 of IL-8 secretion, HaCaT, 10 nM human IL-36γ, FIG. 1F for input 144L133B (antibody, V domains shown) VH: EVQLQQSGAELVKPGASVKLSCTASGFNIKDTYMYWVKQRPEQGLEWIGRIDPAIGTTRYDPKFQGKATLTADTSSNTAFLQLSSLTSEDTAVYYCARYDYSGSSFYFDYWGRGTTLTVSS VL: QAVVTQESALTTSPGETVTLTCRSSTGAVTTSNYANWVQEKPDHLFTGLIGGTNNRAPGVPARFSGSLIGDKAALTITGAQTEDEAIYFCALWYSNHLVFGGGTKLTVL
Response: 12.9 nM

Request: Identify measured IC50 of IL-8 secretion, HaCaT, 10 nM human IL-36γ, FIG. 1F associated with chimeric m/h 144D464A (antibody, human IgG1, lambda, V domains shown, Mouse VH/VL joined to human IgG1 constant and human Ig lambda (IGLC2) constant; also called chimeric mouse/human (m/h) 144D464A antibody) VH: EVQLQQSGAELVKPGASVRLSCTASGFNIKDTYIHWVKQRPEQGLEWIGRIDPAIGTTRYDPKFQGKATITTDTSSDTVHLQFSSLTSEDTAVYYCARLHYFGNNFFFDYWGQGTTLTVSS VL: QAVVTQESALTTSPGEAVTLTCRSSSGAVTTSNYANWVQEKPDHLFAGLIGGTNDRAPGVPARFSGSLIGDKAALTITGAQTEDEAIYFCALWFSNHWVFGGGTKLTVLG
Response: 9.54 nM
